# testedOn: Nuclear respiratory factor 1 (Homo sapiens)
# measurementDescription: ATG_NRF1_CIS: Attagene CIS-FACTORIAL HepG2 Assay for human Nuclear Respiratory Factor 1 (NRF1) Orphan Gene (AID 2282987)
# reportedConditions: HepG2 NRF1 cis-element reporter, Attagene multiplex; actives raise or lower the signal
Active and inactive are the calls of the source. How the source made its calls: active means hit-call score of the fitted dose curve at least 0.9, where 1 is the maximum; inactive means score below 0.9.
Possible outcomes: active, inactive

>>> assignedcategory("O=c1cccc[nH]1")
"inactive"
>>> assignedcategory("CCC/C=C/CO")
"inactive"
>>> assignedcategory("OCC(F)(F)C(F)(F)C(F)(F)C(F)(F)C(F)(F)C(F)(F)CO")
"inactive"
>>> assignedcategory("CC(O)C#CC(C)O (stereo not drawn)")
"active"
>>> assignedcategory("CNS(=O)(=O)C(F)(F)C(F)(F)C(F)(F)C(F)(F)C(F)(F)C(F)(F)C(F)(F)C(F)(F)F")
"inactive"
>>> assignedcategory("COCCOCCC[Si](C)(O[Si](C)(C)C)O[Si](C)(C)C")
"inactive"
>>> assignedcategory("C=CCOC(=O)CC(C)C")
"inactive"
>>> assignedcategory("NS(=O)(=O)C(F)(F)C(F)(F)C(F)(F)C(F)(F)C(F)(F)C(F)(F)F")
"inactive"
>>> assignedcategory("CC(C)Nc1ccc(NC(C)C)c2c1C(=O)c1ccccc1C2=O")
"inactive"
>>> assignedcategory("Cc1cnccn1")
"inactive"
>>> assignedcategory("O=C(c1ccccc1)c1ccc(Cl)cc1")
"inactive"
>>> assignedcategory("CC(C)(C)C(=O)C1C(=O)c2ccccc2C1=O")
"inactive"
>>> assignedcategory("Cc1cc(O)c(C(C)(C)C)cc1C(C)(C)C")
"inactive"
>>> assignedcategory("CC1=CC2C3C=CC(C3)C2C1C (stereo not drawn)")
"inactive"
>>> assignedcategory("CCC(=O)OC(C)c1ccccc1 (stereo not drawn)")
"inactive"
>>> assignedcategory("O=C(Cl)C(F)(F)C(F)(F)C(F)(F)C(F)(F)C(F)(F)C(F)(F)C(F)(F)F")
"inactive"
>>> assignedcategory("C[Si](C)O[Si](C)C")
"inactive"
>>> assignedcategory("CC1=CCC2C(=O)OC(=O)C2C1 (stereo not drawn)")
"inactive"
>>> assignedcategory("CCOC(=O)CCC(C)=O")
"inactive"
>>> assignedcategory("O=C(O)C(F)(F)OC(F)(F)C(F)(F)OC(F)(F)C(F)(F)OC(F)(F)F")
"inactive"
>>> assignedcategory("CN(N=O)C(=O)N[C@@H]1[C@@H](O)[C@H](O)[C@@H](CO)O[C@@H]1O")
"inactive"
>>> assignedcategory("CCCCCCCC/C=C\\CCCCCCCC(=O)OCC(O)CO (stereo not drawn)")
"inactive"
>>> assignedcategory("CCCCOC(=O)C(C)O (stereo not drawn)")
"inactive"
>>> assignedcategory("COC(=O)c1ccc(C=O)cc1")
"inactive"
>>> assignedcategory("O=C1c2c(O)ccc(Nc3ccc(CCO)cc3)c2C(=O)c2c([N+](=O)[O-])ccc(O)c21")
"inactive"
>>> assignedcategory("CCCCOC(=O)[C@H](C)O")
"inactive"
>>> assignedcategory("Cc1cccc(C)n1")
"inactive"
>>> assignedcategory("O=C1C=CC(=O)N1c1ccc(Cc2ccc(N3C(=O)C=CC3=O)cc2)cc1")
"active"
>>> assignedcategory("CCCCCC/C=C/CCCCCCCC(=O)O")
"inactive"
>>> assignedcategory("Nc1cccnc1N")
"inactive"
>>> assignedcategory("CCC(C)CO (stereo not drawn)")
"inactive"
>>> assignedcategory("CC1=CCC(=O)O1")
"inactive"
>>> assignedcategory("O=C1c2ccccc2C(=O)c2c(Cl)cccc21")
"inactive"
>>> assignedcategory("COCCC(=O)OC")
"inactive"
>>> assignedcategory("CC(C)OC(=O)COc1ccc(Cl)cc1Cl")
"inactive"
>>> assignedcategory("CCC(Cc1c(I)cc(I)c(N)c1I)C(=O)O (stereo not drawn)")
"inactive"
>>> assignedcategory("O=C1C=CC(=O)N1c1ccccc1")
"inactive"
>>> assignedcategory("c1ccc(C[P+](c2ccccc2)(c2ccccc2)c2ccccc2)cc1")
"inactive"
>>> assignedcategory("NC(=O)C(F)(F)C(F)(F)C(F)(F)F")
"inactive"
>>> assignedcategory("CN(C)C(C)(C)CO")
"inactive"
>>> assignedcategory("CCCCCCCCCCCC(=O)Cl")
"inactive"
>>> assignedcategory("CCc1ccc(C)nc1")
"inactive"
>>> assignedcategory("NC(=O)C(F)(F)C(F)(F)C(F)(F)C(F)(F)C(N)=O")
"inactive"
>>> assignedcategory("CCCCCCCC/C=C\\CCCCCCCC(=O)N(C)CC(=O)O")
"inactive"
>>> assignedcategory("CCN(CC)c1ccc(N=Nc2ccccc2)cc1")
"active"
>>> assignedcategory("O=C=NCc1cccc(CN=C=O)c1")
"inactive"
>>> assignedcategory("O=C=Nc1cccc2c(N=C=O)cccc12")
"inactive"
>>> assignedcategory("CCCCCCCCCCCCC[N+](C)(C)Cc1ccccc1")
"inactive"

Data origin, for the record: PubChem BioAssay (EPA / NIEHS)
